Each entry below lists one item and its recorded RP-LC retention time value.
- PROTOCOL_DETAILS: gradient 5% acetonitrile 3 min, to 50% in 2 min, to 85% in 15 min, held 3 min, 100 µL/min
- COND: column: Zorbax Extend-C18 2.1 x 50 mm; eluents: water / acetonitrile, 0.1% formic acid
Express your answer in s, writing the number without its unit.

Some solved entries appear below for comparison.
INSERT INTO assay_data (compound, property, reading_unit, experimental_result) VALUES
  ('Cc1ccc(-c2nnc(Cc3nc(-c4cccc(F)c4)no3)o2)cc1F', 'RP-LC retention time', 's', 1110),
  ('O=C(CN1CCc2[nH]c3c(F)c(Cl)ccc3c(=O)c2C1)Nc1cc(F)ccc1F', 'RP-LC retention time', 's', 691);

Any idea what RP-LC retention time was measured for Cc1oc(-c2ccc(NC(=O)c3ccc(N(C)C)cc3)cc2)nc1Cn1cccn1 ?
875

Which RP-LC retention time is listed for CN1C(=O)c2cc(C(=O)N3CCN(c4ncccn4)CC3)nn2CC1(C)C(=O)NC1CCCCCC1 (stereo not given) ?
742

For the compound CCOc1ccccc1-c1noc(-c2nnn3c2COC(c2ccc(F)cc2)C3)n1 (stereo not given) , what RP-LC retention time is on record?
1130

Looking for the measured RP-LC retention time of COCC(=O)Nc1nc(-c2ccc3c(c2)N(C)C(=O)CO3)c(C)s1 , can you help?
764

Tell me the measured RP-LC retention time of COc1ccc(-c2nc3cnccn3c2Nc2ccc(C(=O)NCCN(C)C)cc2)cc1 , please.
586

Please report the recorded RP-LC retention time for CCN1c2ccc(C)cc2C(=O)NC12CCN(C(=O)c1ccc(OC)c(OC)c1)CC2 .
744

# query: RP-LC retention time of entry Cc1nnc(CNC(=O)c2cc(-c3ccccc3)nn2C)o1
646

Which RP-LC retention time value belongs to CCCN1CCN(CCNC(=O)C2CCCN(c3ncc(-c4ccccc4)cn3)C2)CC1 (stereo not given) ?
639

----------
Reported RP-LC retention time values for a set of compounds
- PROTOCOL_DETAILS: gradient 5% acetonitrile 3 min, to 50% in 2 min, to 85% in 15 min, held 3 min, 100 µL/min
- COND: column: Zorbax Extend-C18 2.1 x 50 mm; eluents: water / acetonitrile, 0.1% formic acid
Entry rule: numbers only, all in s.

Some compounds with recorded RP-LC retention time:
INSERT INTO results (compound, reading_unit, experimental_result) VALUES
  ('CC(C)n1c(=O)sc2cc(S(=O)(=O)N3CCC(C(=O)NCc4cccnc4)CC3)ccc21', 's', 808),
  ('CNC(=O)c1cc(C)nc2c(C)cccc12', 's', 570),
  ('Cc1cc(F)ccc1N1C(=O)CN(S(C)(=O)=O)CC1(C)C(=O)NCc1ccc(F)cc1 (centres undefined)', 's', 814);

Requested field: RP-LC retention time. Item: O=C(NCc1cccnc1)C1c2ccccc2C(=O)N1CCc1ccc(Cl)cc1 (centres undefined)
668

Fill blank: measured RP-LC retention time of the compound Cc1ccc(NC(=O)C2CCN(C(=O)c3ncn4c3COC(c3ccc(F)cc3)C4)CC2)cc1F (centres undefined) is ____.
854

Look up RP-LC retention time for this compound: Cc1ccc(N2CC(c3nc(-c4ccccc4C)no3)CC2=O)cc1F (centres undefined)
1130

Returns the measured RP-LC retention time for the input compound. Input: CCNc1nc(C)cc(N2CCN(C(=O)Nc3cccc(Cl)c3)CC2)n1
695

// RP-LC retention time lookup, key: Cc1cc2nn(CC(=O)Nc3ccccc3)c(=O)n2c(N2CCCC2)n1
703

Please report the recorded RP-LC retention time for CCCNC(=O)C1CCCN(c2ccc(SCC(=O)NCc3ccccc3Cl)nn2)C1 (centres undefined) .
661

----------
- PROTOCOL_DETAILS: gradient 5% acetonitrile 3 min, to 50% in 2 min, to 85% in 15 min, held 3 min, 100 µL/min
- COND: column: Zorbax Extend-C18 2.1 x 50 mm; eluents: water / acetonitrile, 0.1% formic acid
# RP-LC retention time per record follows
Give your result in s as a bare value.

// below: answered compounds
INSERT INTO results (compound, property, experimental_result) VALUES
  ('Cc1cccc(C(=O)NCC(=O)Nc2nc3ccccc3[nH]2)c1', 'RP-LC retention time', 631),
  ('Cc1ccc(-c2cn3c(n2)N(C(=O)C2CCCO2)CCC3)cc1 (stereo not given)', 'RP-LC retention time', 635);

Turning now to a further record.
Data request, read-out RP-LC retention time, for O=C(Cn1ccc2ccc(N3CCOCC3)nc21)NCc1ccccc1Cl
905

----------
- PROTOCOL_DETAILS: gradient 5% acetonitrile 3 min, to 50% in 2 min, to 85% in 15 min, held 3 min, 100 µL/min
- COND: column: Zorbax Extend-C18 2.1 x 50 mm; eluents: water / acetonitrile, 0.1% formic acid
Class criterion met: RP-LC retention time at least 700 s. Class criterion not met: RP-LC retention time below 700 s.

Sample answers from the record:
INSERT INTO results (molecule, group_label) VALUES
  ('CCCNC(=O)C1CCN(c2ccc(SCC(=O)NCc3ccc(C)c(C)c3)nn2)CC1', 'criterion not met'),
  ('O=C(CN1CCCCC1c1nc(-c2ccc(F)cc2)no1)NCc1cccs1 (stereo not given)', 'criterion met');

Now look at this entry.
Threshold query (RP-LC retention time >= 700 s) on CC(C)CNC(=O)N(C)Cc1nc2cc(C(=O)NC(C)C)ccc2n1C
criterion not met

----------
- PROTOCOL_DETAILS: gradient 5% acetonitrile 3 min, to 50% in 2 min, to 85% in 15 min, held 3 min, 100 µL/min
- COND: column: Zorbax Extend-C18 2.1 x 50 mm; eluents: water / acetonitrile, 0.1% formic acid
# reported RP-LC retention time; entries follow
Unit s implied. Number only.

Completed entries (count: 4):
INSERT INTO results (compound, experimental_result) VALUES
  ('CCCN(Cc1ccc(OC)c(OC)c1)Cc1cc(=O)n2cc(Cl)ccc2n1', 632),
  ('COCCN1C(=O)CCc2cc(NS(=O)(=O)c3cc(C)ccc3C)ccc21', 1060),
  ('CCOC(=O)c1[nH]c(C)c(CN(CC2CCCO2)C(=O)c2ccc(Cl)cc2)c1C (stereo not given)', 1000),
  ('CSc1ncccc1-c1nnc(C)o1', 712);

Next, consider the following compound.
So what does the record say about RP-LC retention time for Cc1ccc(-n2ccn3cc(-c4ccc(F)cc4)nc3c2=O)cc1Cl ?
924

----------
- PROTOCOL_DETAILS: gradient 5% acetonitrile 3 min, to 50% in 2 min, to 85% in 15 min, held 3 min, 100 µL/min
- COND: column: Zorbax Extend-C18 2.1 x 50 mm; eluents: water / acetonitrile, 0.1% formic acid
Parameter RP-LC retention time: see the listing below.
Your answer should be a plain number; it is taken to be in s.

A selection of reference data follows.
INSERT INTO results (molecule, experimental_result) VALUES
  ('CCn1c(CCNC(=O)c2ccc(F)c(Cl)c2)nc2cccnc21', 676),
  ('Cc1cc(C)n(-c2ccnc(N3CCN(c4ccccc4F)CC3)n2)n1', 1220),
  ('Cc1ccc(Cn2cccc2C(=O)C(=O)N2CCN(c3ccccn3)CC2)cc1', 690);

State the recorded RP-LC retention time for this entry: CCCN1C(=O)COc2cc(-c3noc(C(=O)N4CCN(c5ccc(Cl)cc5)CC4)n3)ccc21
1190

Entry CC(=O)Nc1ccc(-n2cnc(C(=O)NCCC3=CCCCC3)c2)nc1 : reported RP-LC retention time = ?
739

I am curious: what RP-LC retention time value has been reported for CCCNC(=O)C1CCCN(c2nc3ncn(CC(=O)Nc4ccc(F)cc4)c(=O)c3s2)C1 (stereo not given) ?
692

I'd like to know its RP-LC retention time. The molecule in question is CS(=O)(=O)c1ccc(NC(=O)C2CN(C(=O)c3ccc(F)c(F)c3)C2)cc1
661

What does the record list as RP-LC retention time for CS(=O)(=O)Nc1ccc(C2(C(=O)NCc3ccccc3Cl)CCCCC2)cc1 ?
946

Which RP-LC retention time is reported for this molecule? Cc1cc(NC(=O)c2c[nH]c3ncccc23)ccc1F
739

What measured RP-LC retention time goes with COc1ccc(-c2nc(-c3ccc(-n4ccnc4)nc3)no2)c(OC)c1 ?
698

Quick one: RP-LC retention time for CCc1nc2cc(N3CCC(C(=O)N(CC)CC)CC3)cnc2nc1CC ?
712

# query: RP-LC retention time of entry O=C(Nc1ccc2nc3n(c(=O)c2c1)CCCCC3)C(=O)N1CCCC1
684

Can you look up the measured RP-LC retention time of CN1C(=O)c2cccn2CC1CNC(=O)c1nccn1C (stereo not given) for me?
573

Recorded RP-LC retention time for Cc1cc(S(=O)(=O)NCC2CCCO2)cc([N+](=O)[O-])c1C (stereo not given) , please?
778

Field request: RP-LC retention time | item: O=C(Nc1cccn2ncnc12)c1ccccc1C(F)(F)F
765

Look at this molecule and give its reported RP-LC retention time. Cc1cccc(Cl)c1NC(=O)/C=C/c1ccccc1
850

May I ask what RP-LC retention time has been recorded for CC(C)(C)c1ccc(O)c(NC(=O)c2cn(-c3ccc(S(=O)(=O)N4CCCC4)cc3)cn2)c1 ?
1020
